study.target: NLRP3 inflammasome (Homo sapiens, UniProt Q96P20)
Construct: endogenous in cells
Sequence (Q96P20 whole entry): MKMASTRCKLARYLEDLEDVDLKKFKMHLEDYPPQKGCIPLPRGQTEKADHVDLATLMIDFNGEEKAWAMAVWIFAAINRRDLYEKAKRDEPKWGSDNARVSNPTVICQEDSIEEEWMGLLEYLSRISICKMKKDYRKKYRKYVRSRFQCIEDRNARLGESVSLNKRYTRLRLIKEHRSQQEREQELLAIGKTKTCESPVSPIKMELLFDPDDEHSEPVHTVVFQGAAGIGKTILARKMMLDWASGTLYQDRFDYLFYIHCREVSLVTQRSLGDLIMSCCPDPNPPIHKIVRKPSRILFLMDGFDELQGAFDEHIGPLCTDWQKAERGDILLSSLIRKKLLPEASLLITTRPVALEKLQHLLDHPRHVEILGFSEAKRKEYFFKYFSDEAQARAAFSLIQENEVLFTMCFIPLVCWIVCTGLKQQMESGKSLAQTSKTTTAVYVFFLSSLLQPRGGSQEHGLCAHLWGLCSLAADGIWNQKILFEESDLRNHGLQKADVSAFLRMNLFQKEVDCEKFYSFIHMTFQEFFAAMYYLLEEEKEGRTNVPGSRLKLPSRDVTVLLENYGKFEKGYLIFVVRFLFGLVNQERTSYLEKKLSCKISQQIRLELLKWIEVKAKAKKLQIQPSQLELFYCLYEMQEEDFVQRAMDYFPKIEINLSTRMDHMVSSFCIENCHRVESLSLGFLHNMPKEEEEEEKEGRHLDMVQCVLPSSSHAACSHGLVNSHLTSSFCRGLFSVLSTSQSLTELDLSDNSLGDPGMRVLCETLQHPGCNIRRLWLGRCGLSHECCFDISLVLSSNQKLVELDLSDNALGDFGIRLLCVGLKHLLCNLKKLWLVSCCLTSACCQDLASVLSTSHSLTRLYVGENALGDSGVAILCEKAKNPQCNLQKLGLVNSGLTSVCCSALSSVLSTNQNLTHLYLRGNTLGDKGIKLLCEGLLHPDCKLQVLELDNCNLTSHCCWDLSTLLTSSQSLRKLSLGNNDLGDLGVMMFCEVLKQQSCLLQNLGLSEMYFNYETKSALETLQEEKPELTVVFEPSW
method.summary: IL-1β secretion assay (NLRP3 IC50) in LPS-primed, nigericin-activated THP-1 cells, HTRF
run.parameters: monocytic THP-1 cells; LPS 10 ng/mL 3 h priming, then compound + nigericin 10 μM 2 h; relative IC50, 10 concentrations, geometric mean
Entries and their measured IC50 follow.
Report as a plain number; the unit nM is understood.

Below, each entry is followed by its recorded IC50 result.
1) Cc1cc(C)c(-c2ccc(N3CCO[C@@H](C(C)O)C3)nn2)c(O)c1 (single isomer, unassigned)
545
2) Cc1cc(C(F)(F)F)cc(O)c1-c1ccc(N2C[C@@H](CO)O[C@@H](C)C2)nn1
11

For record Cc1cc(N2CC[C@H]3CCN(C)C[C@H]32)nnc1-c1ccc(C(F)(F)F)cc1O (single isomer, unassigned) the listed IC50 is 0.5

For record Cc1cc(C(F)(F)F)cc(O)c1-c1ccc(N2CC[C@H](CO)C2=O)nn1 (single isomer, unassigned) the listed IC50 is 275
